Values from patent US11317632B2

- experimentDescription: Titration curves of buffers with standardized 0.1 N NaOH or HCl, pH meter
- Format: physicochemical
- measurementContext: distilled water, added strontium nitrate; read-out: fourth pKa value
endpoint: pKa

Please report the recorded pKa for O=P(O)(O)c1ccccc1P(=O)(O)O .
9.5 to 10.5

###

- experimentDescription: Titration curves of buffers with standardized 0.1 N NaOH or HCl, pH meter
- Type: physicochemical
- measurementContext: distilled water, one equivalent of boric acid; read-out: third and fourth pKa values
endpoint: pKa

If you can, please state the reported pKa value of O=P(O)(O)c1ccccc1P(=O)(O)O .
7 to 9

###

- experimentDescription: Titration curves of buffers with standardized 0.1 N NaOH or HCl, pH meter
- Assay type: physicochemical
- measurementContext: distilled water; zinc nitrate (2 equivalents) added prior to titration; read-out: third and fourth pKa values
endpoint: pKa

So what does the record say about pKa for O=P(O)(O)C(Cl)(Cl)P(=O)(O)O [clodronic acid, dichloromethanediphosphonic acid, reference compound] ?
3.5 to 4.5
